Target: T1, KicGAS (Kaposi sarcoma-associated herpesvirus …, UniProt Q2HR80 1-131)
T1 sequence: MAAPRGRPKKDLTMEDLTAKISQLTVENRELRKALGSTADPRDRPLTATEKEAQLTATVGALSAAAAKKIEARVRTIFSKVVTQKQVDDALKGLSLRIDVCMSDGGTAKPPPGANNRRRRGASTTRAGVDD
Experiment: fluorescence polarization; Hill n 1.88; EMSA: 20 mM Tris-HCl pH 7.4, 150 mM NaCl, 10% glycerol, on ice, 20 nM FAM-DNA, gel at 4 C; FP: 400 pg/ul FAM-DNA, buffer and temperature not stated; Hill fits
Details: protein: recombinant; tags: Avi-His6-SUMO removed (tag-free); label: 5' FAM sense strand; blunt
measurement-label: Kd

response.value for ISD30 (dsDNA) DNA 1: ATCTACTAGTGATCTATGACTGATCTGTAC DNA 2: GTACAGATCAGTCATAGATCACTAGTAGAT (field: Kd) = 290 nM
